The measured values listed here are drawn from the RNAGym collection of RNA variant scans (doi:10.7554/elife.80360).

B1: HDV Ribozyme (parent)
chain: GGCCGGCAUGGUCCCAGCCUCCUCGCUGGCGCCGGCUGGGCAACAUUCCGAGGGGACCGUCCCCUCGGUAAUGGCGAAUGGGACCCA

- Variants of: B1
- protocolSummary: self-cleavage, relative activity (ratio to wild type); higher = more cleavage; co-transcriptional
observedProperty: self-cleavage

>  <sequenceChain>
GGCCGGCAUGGUCCCAACGUCCUCGCUGGCGCCGGCUGGGCAACAUUCCGAGGGGACCGUCCCCUCGGUAAUGGCGAAUGGGACCCA

>  <numericResult>
0

$$$$
>  <sequenceChain>
GGCCGGCAUGGCCCCAGCCUCCUCGCUGGCGCCGGCUGGGCAACAUUCCGAGGGGACCGUCCCCUCAGUAAUGGCGAAUGGGACCCA

>  <numericResult>
0.229

$$$$
>  <sequenceChain>
GGCGGGCAUGGUCCCAGCCUCCUCGCUGGCGCCGGCUGGGCAACCUUCCGAGGGGACCGUCCCCUCGGUAAUGGCGAAUGGGACCCA

>  <numericResult>
0.0554

$$$$
>  <sequenceChain>
GGCCGGCAUGGUCCCAGCCUCCUCGCUGGCGCCGGCUGGGCAACAUUCCAAGGGGACCGUCCCCUCGGUAAUGGCGAGUGGGACCCA

>  <numericResult>
0.923

$$$$
>  <sequenceChain>
GGCCGGCAGGGUCCCAGCCUCCUCGCUGGCGCCGGCUGGGCAACAUACCGAGGGGACCGUCCCCUCGGUAAUGGCGAAUGGGACCCA

>  <numericResult>
1.16

$$$$
>  <sequenceChain>
GGCCGGCAUGGUCCCAGCCUCCUCGCUGGCGCCGGCUGGGCAACAUUCCGAGGGGACCGUCCCCUCGGUACUGGCGAAUGGGACCCC

>  <numericResult>
0.755

$$$$
>  <sequenceChain>
GGCCGGCAUGGUCCCAGCCUCCUCGCUGGCGCCGGCUGGGCAACAUUCCGAGUGGACCGUCCCCUCGGUAAUGGCGAAUGGGAACCA

>  <numericResult>
0.754

$$$$
>  <sequenceChain>
GGCCGGCAUGGUCCCAGCCUCCUCGCUGGCGCCGGCUGGGCAACAUUCCGAGGGGACCGUCCCUUCGGUAUUGGCGAAUGGGACCCA

>  <numericResult>
1.12

$$$$
>  <sequenceChain>
GGCCGGCAUGGUCCCAACCUCCUCGCUGGCGCCGGCUGGGCAACAUUCCGAGGGGACCGUCCUCUCGGUAAUGGCGAAUGGGACCCA

>  <numericResult>
0.88

$$$$
>  <sequenceChain>
GGCCGGCAUGGUCCCAGCCUCCUCGCUGGCGCCGGCUGGGCAACAUUCCGCGGGGACCGUGCCCUCGGUAAUGGCGAAUGGGACCCA

>  <numericResult>
0.731

$$$$
